Ref: paper PMC4336329

- assayed_target: human ether-à-go-go-related gene (hERG) potassium channel (human);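 note: peak tail current of the secondary pulse compared with the same well before compound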
- Sequence (Q12809 whole entry, looked up): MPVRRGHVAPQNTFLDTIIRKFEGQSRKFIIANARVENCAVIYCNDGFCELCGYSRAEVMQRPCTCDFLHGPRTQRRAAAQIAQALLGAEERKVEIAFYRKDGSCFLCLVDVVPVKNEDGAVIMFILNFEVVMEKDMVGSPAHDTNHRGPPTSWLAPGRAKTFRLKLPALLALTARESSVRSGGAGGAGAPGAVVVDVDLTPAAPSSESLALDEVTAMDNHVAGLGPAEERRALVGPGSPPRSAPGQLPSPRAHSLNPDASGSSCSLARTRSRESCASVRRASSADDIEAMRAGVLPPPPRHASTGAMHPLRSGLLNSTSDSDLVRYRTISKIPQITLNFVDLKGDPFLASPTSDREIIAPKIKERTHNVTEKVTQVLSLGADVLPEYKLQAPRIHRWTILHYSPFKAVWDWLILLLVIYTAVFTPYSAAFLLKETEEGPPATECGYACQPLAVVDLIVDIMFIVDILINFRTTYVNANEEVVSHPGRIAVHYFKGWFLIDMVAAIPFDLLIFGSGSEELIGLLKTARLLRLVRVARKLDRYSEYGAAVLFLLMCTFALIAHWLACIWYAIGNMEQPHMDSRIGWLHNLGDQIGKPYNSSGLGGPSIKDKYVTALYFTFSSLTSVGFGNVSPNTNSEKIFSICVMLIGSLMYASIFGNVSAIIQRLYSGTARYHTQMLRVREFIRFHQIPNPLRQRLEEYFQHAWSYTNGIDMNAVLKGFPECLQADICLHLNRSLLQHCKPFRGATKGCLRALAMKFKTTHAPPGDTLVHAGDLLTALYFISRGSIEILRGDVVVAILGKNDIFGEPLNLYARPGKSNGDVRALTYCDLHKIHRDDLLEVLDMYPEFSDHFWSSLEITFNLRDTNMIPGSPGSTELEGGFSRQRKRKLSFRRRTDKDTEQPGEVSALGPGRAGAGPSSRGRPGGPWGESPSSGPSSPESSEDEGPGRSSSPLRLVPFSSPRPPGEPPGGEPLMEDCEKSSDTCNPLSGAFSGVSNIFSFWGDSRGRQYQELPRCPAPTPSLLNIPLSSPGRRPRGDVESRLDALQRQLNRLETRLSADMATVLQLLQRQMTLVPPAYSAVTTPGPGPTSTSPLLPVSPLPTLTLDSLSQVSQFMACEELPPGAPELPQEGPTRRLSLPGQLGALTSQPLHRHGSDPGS
- measurement_protocol: primary screen, population patch clamp on CHO cells stably expressing hERG; higher = less effect of the substance
Screen size: about 310,000 compounds; about 14,000 (4.5%) showed an effect of 50% or more. Effects have a minus sign here. The full list was thinned out, with strong results kept by preference.
Please note: True applies when hERG current change (%, negative = inhibition) at 10uM is -10% or greater, and False applies otherwise.

> print(dat)
                                   compound  class
1  CCC(=O)Nc1ccc(NC(=O)CSc2nnc(-c3ccco3)n2CC)cc1   True
2        CCn1c(SCC(=O)NC2CCCC2)nnc1-c1ccco1   True
3      CCCn1c(SCC(=O)NC2CCCCC2)nnc1-c1ccco1  False
4  COc1ccc(/C=C/C(=O)NCC(=O)N/N=C/c2cccnc2)cc1  False
5  CCc1ccc2[nH]c(=O)c(C(c3nnnn3CC3CCCO3)N3CCCc4ccccc43)cc2c1 (centres unmarked)   True
6  COCCn1c(SCC(=O)Nc2cccc(C)n2)nnc1-c1ccco1  False
7        COc1ccc(CCC(=O)NCCOc2ccc(C)cc2)cc1   True
8  CC(=O)CCc1ccc(OCC(O)CNCCOc2ccc(C)cc2)cc1 (centres unmarked)  False
